- Tested on: Candida albicans
- assay-text: Minimum inhibitory concentration against Candida albicans (ATCC 10231) in the presence of serum
- Format: functional
# maps each entry to its MIC
Answer in µg/mL, number only, no unit symbol.

Example cases with answers are listed next.
structure-as-smiles: CCCCC/C=C/C=C/[C@@H](O)C/C=C/C=C/C(=O)O[C@@H]1[C@@H](O)[C@H](c2c(O)cc(O)cc2CO)O[C@H](CO)[C@H]1O[C@@H]1O[C@H](COC(=O)c2ccc(-c3ccc(OCc4ccccc4)cc3)cc2)[C@H](O)[C@H](O)[C@H]1O[C@@H]1O[C@H](CO)[C@H](O)[C@H](O)[C@H]1O
observation-type: MIC
observed-value: 1.56
//
structure-as-smiles: CCCCC/C=C/C=C/[C@@H](O)C/C=C/C=C/C(=O)O[C@@H]1[C@@H](O)[C@H](c2c(O)cc(O)cc2CO)O[C@H](CO)[C@H]1O[C@@H]1O[C@H](COC(=O)c2ccc(-c3ccccc3)cc2)[C@H](O)[C@H](O)[C@H]1O[C@@H]1O[C@H](CO)[C@H](O)[C@H](O)[C@H]1O
observation-type: MIC
observed-value: 0.78
//
structure-as-smiles: CCCCC/C=C/C=C/[C@@H](O)C/C=C/C=C/C(=O)O[C@@H]1[C@@H](O)[C@H](c2c(O)cc(O)cc2CO)O[C@H](CO)[C@H]1O[C@@H]1O[C@H](COC(=O)c2ccc(-c3ccc(OC(C)C)cc3)cc2)[C@H](O)[C@H](O)[C@H]1O[C@@H]1O[C@H](CO)[C@H](O)[C@H](O)[C@H]1O
observation-type: MIC
observed-value: 1.56

Switching to the query record.
Please supply the value of reported MIC for the item `CCCCC/C=C/C=C/[C@@H](O)C/C=C/C=C/C(=O)O[C@@H]1[C@@H](O)[C@H](c2c(O)cc(O)cc2CO)O[C@H](CO)[C@H]1O[C@@H]1O[C@H](COC(=O)c2cc3ccccc3c3ccccc23)[C@H](O)[C@H](O)[C@H]1O[C@@H]1O[C@H](CO)[C@H](O)[C@H](O)[C@H]1O` 3.12

---

- Tested on: Candida albicans
- assay-text: Minimum inhibitory concentration against Candida albicans (ATCC 62376) in the absence of serum.
- Format: functional
observation-type: MIC (µg/mL)
Answer in µg/mL, number only, no unit symbol.

Please supply the value of reported MIC for the item `CCCCC/C=C/C=C/[C@@H](O)C/C=C/C=C/C(=O)O[C@@H]1[C@@H](O)[C@H](c2c(O)cc(O)cc2CO)O[C@H](CO)[C@H]1O[C@@H]1O[C@H](COC(=O)c2ccc(-c3ccc(OC)cc3)cc2)[C@H](O)[C@H](O)[C@H]1O[C@@H]1O[C@H](CO)[C@H](O)[C@H](O)[C@H]1O` 12.5

---

- System: Candida albicans
- assay-text: Minimum inhibitory concentration against Candida albicans (579a) in the presence of serum
- Format: functional
observation-type: MIC (µg/mL)
Answer in µg/mL, number only, no unit symbol.

compound: CCC(O)/C=C/C=C\C=C\C(=O)OC[C@H]1O[C@@H](O[C@H]2[C@H](OC(=O)/C=C/C=C/C[C@H](O)/C(C)=C/C=C/CCC(C)CC)[C@@H](O)[C@@]3(OCc4cc(O)cc(O)c43)O[C@@H]2CO)[C@H](O)[C@@H](O)[C@H]1O (some centres not stated)
MIC (µg/mL): 0.78

Switching to the query record.
Please supply the value of reported MIC for the item `CCCCC/C=C/C=C/[C@@H](O)C/C=C/C=C/C(=O)O[C@@H]1[C@@H](O)[C@H](c2c(O)cc(O)cc2CO)O[C@H](CO)[C@H]1O[C@@H]1O[C@H](COC(=O)c2ccc(-c3ccccc3)cc2)[C@H](O)[C@H](O)[C@H]1O[C@@H]1O[C@H](CO)[C@H](O)[C@H](O)[C@H]1O` 0.78
